system: T1, human ICOS-hFc (homodimeric, bivalent) (human, UniProt Q9Y6W8 21-141)
T1 construct: also called hICOS-Fc; hICOS-hFc; not shown: human IgG1 Fc (IgG1 backbone)
T1 sequence: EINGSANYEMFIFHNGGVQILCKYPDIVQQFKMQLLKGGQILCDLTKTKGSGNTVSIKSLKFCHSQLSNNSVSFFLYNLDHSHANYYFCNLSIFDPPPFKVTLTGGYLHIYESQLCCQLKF
protocol-notes: BLI, bivalent binding to homodimeric ICOS-Fc
metric: kon (M⁻¹ s⁻¹)
Report only the number, with the unit M⁻¹ s⁻¹ understood.

Input: # get_value(readout='kon', item= 35A9 (antibody, V domains shown, Armenian hamster monoclonal tested as IgG; also called hamster anti-ICOS 35A9) VH: EVQLVESGGGLVKPGGSLKLSCAASGFTFSDYWMDWVRQAPGKGLEWVGNIDEDGSIAEYSPFVKGRFTISRDNVKNTLYLQMNSVKSEDTATYYCSRWGRFAFDSWGQGTLVTVSS VL: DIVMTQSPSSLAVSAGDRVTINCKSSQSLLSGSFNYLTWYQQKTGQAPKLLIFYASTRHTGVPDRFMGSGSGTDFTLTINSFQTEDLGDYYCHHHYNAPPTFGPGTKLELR )
Output: 1.01e+06
